Provenance of the data: patent US9783536B2

// reported IC50 per item
Assay System: human PI3Kα protein (Homo sapiens)
Construct: purchased Carna Biosciences, Inc; host or cells: baculovirus expression system
Sequence (P42336 whole entry): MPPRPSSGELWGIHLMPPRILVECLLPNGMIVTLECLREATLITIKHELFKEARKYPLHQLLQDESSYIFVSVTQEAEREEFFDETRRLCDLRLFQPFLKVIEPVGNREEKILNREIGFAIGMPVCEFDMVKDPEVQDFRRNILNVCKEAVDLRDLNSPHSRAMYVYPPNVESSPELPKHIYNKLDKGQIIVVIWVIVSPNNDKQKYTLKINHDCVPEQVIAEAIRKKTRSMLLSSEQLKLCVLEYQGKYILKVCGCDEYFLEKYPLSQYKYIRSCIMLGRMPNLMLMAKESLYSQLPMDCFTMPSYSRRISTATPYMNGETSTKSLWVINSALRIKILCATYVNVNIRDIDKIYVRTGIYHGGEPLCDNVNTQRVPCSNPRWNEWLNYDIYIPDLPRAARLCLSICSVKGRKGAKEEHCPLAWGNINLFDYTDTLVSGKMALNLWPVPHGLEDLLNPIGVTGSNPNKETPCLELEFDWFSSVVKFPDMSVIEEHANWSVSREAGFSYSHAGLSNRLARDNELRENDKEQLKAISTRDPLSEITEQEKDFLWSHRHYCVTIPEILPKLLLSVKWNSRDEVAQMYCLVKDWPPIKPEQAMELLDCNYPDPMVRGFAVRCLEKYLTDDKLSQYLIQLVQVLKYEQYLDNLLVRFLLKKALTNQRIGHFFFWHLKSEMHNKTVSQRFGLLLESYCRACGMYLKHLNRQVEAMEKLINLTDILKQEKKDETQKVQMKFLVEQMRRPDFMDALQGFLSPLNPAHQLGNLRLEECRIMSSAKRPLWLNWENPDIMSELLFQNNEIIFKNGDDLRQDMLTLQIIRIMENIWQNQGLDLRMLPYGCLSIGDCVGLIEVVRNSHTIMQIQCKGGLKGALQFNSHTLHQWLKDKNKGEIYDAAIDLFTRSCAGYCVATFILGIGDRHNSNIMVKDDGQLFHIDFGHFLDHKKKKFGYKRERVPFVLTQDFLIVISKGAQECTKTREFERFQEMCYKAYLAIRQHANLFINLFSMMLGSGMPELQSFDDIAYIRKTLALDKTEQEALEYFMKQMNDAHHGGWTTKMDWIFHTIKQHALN
Sequence (P27986 whole entry partner): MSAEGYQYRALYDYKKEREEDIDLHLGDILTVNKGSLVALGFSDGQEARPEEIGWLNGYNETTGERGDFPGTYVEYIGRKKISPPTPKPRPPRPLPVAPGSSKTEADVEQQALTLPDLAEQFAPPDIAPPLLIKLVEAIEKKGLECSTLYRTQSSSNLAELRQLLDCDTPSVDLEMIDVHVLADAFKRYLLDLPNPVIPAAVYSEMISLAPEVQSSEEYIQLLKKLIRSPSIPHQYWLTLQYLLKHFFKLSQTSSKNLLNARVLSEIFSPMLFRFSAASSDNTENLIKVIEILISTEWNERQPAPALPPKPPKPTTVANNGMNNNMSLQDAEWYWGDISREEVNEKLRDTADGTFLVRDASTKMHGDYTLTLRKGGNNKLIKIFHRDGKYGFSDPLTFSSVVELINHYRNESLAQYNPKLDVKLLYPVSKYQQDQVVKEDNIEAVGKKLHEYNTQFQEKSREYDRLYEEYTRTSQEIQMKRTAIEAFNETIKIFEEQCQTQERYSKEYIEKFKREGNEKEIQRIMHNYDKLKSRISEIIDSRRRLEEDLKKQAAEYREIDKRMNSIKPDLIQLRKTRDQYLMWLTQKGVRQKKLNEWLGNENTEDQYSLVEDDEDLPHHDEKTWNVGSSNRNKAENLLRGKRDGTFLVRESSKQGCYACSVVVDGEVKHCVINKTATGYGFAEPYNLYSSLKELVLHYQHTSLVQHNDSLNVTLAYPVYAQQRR
Assay Explanation: PI3Kα enzyme assay (ADP-Glo)
Format: biochemical
Test Conditions: 4.5 nmol/L PI3Kα, PIP2 50 μmol/L, ATP 100 μmol/L; read-out: PI3Kα enzyme inhibitory activity
Structures can show the parent of a compound that is named as a salt.

Worked cases, IC50 given:
# Compound, IC50
rows = [
    ("CC(C)Cc1cnc(Nc2ccc3ncc(-c4cnn(CCCN5CCCC5)c4)cc3n2)s1", "< 1000 nM"),
    ("CC(C)c1nnc(Nc2ccc3ncc(Nc4cncnc4)cc3n2)s1", "< 1000 nM"),
    ("O=C(c1ccc(Nc2cnc3ccc(Nc4nnc(C5CCCC5)s4)nc3c2)cn1)N1CCOCC1", "< 1000 nM"),
]

API: value(readout= IC50, system= human PI3Kα protein (Homo sapiens), query= CC(C)(C)OC(=O)N1CCN(CCn2cc(-c3cnc4ccc(Nc5nnc(S(=O)(=O)Nc6ccccc6)s5)nc4c3)cn2)CC1 )
1000 to 10000 nM

API: value(readout= IC50, system= human PI3Kα protein (Homo sapiens), query= COC[C@H]1CCCN1c1cnc2ccc(Nc3nnc(C4CCCC4)s3)nc2c1 )
1000 to 10000 nM

API: value(readout= IC50, system= human PI3Kα protein (Homo sapiens), query= COc1ccccc1Nc1ccnc2ccc(Nc3nnc(C(C)C)s3)nc12 )
< 1000 nM

API: value(readout= IC50, system= human PI3Kα protein (Homo sapiens), query= c1ccc2ncc(Nc3cnc4ccc(Nc5nnc(C6CCCC6)s5)nc4c3)cc2c1 )
< 1000 nM

API: value(readout= IC50, system= human PI3Kα protein (Homo sapiens), query= CC(C)Cc1nn(C)cc1-c1cnc2ccc(Nc3nnc(C(C)C)s3)nc2c1 )
< 1000 nM

API: value(readout= IC50, system= human PI3Kα protein (Homo sapiens), query= Cc1nnc(Sc2ccc3ncc(-c4cnn(C)c4)cc3n2)s1 )
< 1000 nM

API: value(readout= IC50, system= human PI3Kα protein (Homo sapiens), query= CNS(=O)(=O)c1nnc(Nc2ccc3ncc(-c4cnn(C)c4)cc3n2)s1 [Example 0189, sodium salt] )
< 1000 nM

====

Assay System: GST fusion human ERK2 protein (Homo sapiens, UniProt P28482)
Construct: purchased Carna Biosciences, Inc; host or cells: E. coli expression system
Sequence (P28482 whole entry, the tested form may be a part): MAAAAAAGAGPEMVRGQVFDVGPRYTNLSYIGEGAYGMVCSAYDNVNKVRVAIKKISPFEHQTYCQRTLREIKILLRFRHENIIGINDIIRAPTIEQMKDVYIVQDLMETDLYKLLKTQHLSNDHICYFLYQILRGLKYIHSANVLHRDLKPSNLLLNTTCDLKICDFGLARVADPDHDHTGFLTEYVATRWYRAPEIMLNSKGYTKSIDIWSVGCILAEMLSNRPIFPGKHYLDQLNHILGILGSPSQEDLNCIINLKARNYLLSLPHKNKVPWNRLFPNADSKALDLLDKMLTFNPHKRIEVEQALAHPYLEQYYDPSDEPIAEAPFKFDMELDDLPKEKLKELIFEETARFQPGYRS
Assay Explanation: ERK2 enzyme assay (2)
Assay type: biochemical
Test Conditions: ERK2 enzyme assay (2); read-out: ERK2 enzyme inhibitory activity (2)
Measure: IC50

Worked cases, IC50 given:
# Compound, Measure, Observed Value
measured = [
    ("c1nc2ccc(Nc3nnc(C4CCCC4)s3)nc2cc1N1CCOCC1 [Example 0311]", "IC50", "< 1000 nM"),
    ("CC(C)c1cnnc(Nc2ccc3ncc(-c4cnn(CC5CCN(C(=O)C6CC6)CC5)c4)cc3n2)c1 [Example 0534]", "IC50", "< 1000 nM"),
    ("C1=C(c2cnc3ccc(Nc4nnc(C5CCCC5)s4)nc3c2)CCOC1 [Example 0327]", "IC50", "< 1000 nM"),
]

# evaluate next
API: value(readout= IC50, system= GST fusion human ERK2 protein (Homo sapiens, UniProt P28482), query= CC(C)c1cnnc(Nc2ccc3ncc(N4CCN(C)C(=O)C4)cc3n2)c1 [Example 0887] )
1000 to 10000 nM
